normalized growth values for the compounds below.
# Procedure details: chemical genetic growth profiling, strain panel (AID 1159580);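 further: tested at 20 µM; growth read once vehicle control cultures reached saturation at 30 °C; 1 = growth at the plate median or of vehicle wells; lower values mean less growth of the strain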
# Measurement parameters: S. cerevisiae deletion strains, growth OD, locus YFR028C, strain CDC14, active compounds read low
In all, about 5,500 compounds went through this assay and about 2,000 (36%) were called active. About 18% were inconclusive and are not listed. The list shows a part of the results.
The reply should be a number, written without any unit.

{"Compound": "N#C/C(=N/Nc1ccc(Cl)cc1)C(=O)C1CC1", "normalized growth": 0.854}
{"Compound": "FC(F)(F)c1ccc(C2Sc3ccccc3N=C3c4ccccc4CC32)cc1 (stereo not drawn)", "normalized growth": 1.01}

Here's the next entry for you.
Item Fc1ccc(Nc2nc(-c3ccc(F)c(F)c3)cs2)c(F)c1 has what recorded normalized growth?
0.0972
